Molecular target: T1, Recombinant mouse DDR2 ECD-Fc (R&D systems, Cat. No. 7479-DR-050) (mouse, UniProt Q62371 22-399, biotinylated)
T1 construct: Bought protein; not shown: Fc part of the bought fusion protein, not described
T1 sequence: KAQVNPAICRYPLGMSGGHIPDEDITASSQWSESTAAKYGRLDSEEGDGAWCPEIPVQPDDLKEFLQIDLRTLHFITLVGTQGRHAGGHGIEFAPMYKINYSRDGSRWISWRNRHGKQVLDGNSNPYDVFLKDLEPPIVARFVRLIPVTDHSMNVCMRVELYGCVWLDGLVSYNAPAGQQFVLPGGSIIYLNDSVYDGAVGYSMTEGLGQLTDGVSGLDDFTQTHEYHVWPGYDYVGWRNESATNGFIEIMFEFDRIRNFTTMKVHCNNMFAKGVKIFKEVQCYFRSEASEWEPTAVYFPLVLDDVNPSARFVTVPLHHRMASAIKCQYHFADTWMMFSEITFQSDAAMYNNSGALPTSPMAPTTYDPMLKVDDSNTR
Assay: Octet tandem binning on captured mouse DDR2 ECD-Fc; competitor Ab1 (bound first) DAB0094
metricName: Octet response of Ab2
Lab note: write the figure by itself, no unit.

Reported Octet response of Ab2 for DAB0045 (antibody, V domains shown, Variable regions from immunized rabbits) VH: QSVEESGGRLVTPGTPLTLTCTVSGFSLSSYSMGWVRQAPGKGLEYIGVINTSDSAYYASWAKGRFTISRTSTTVDLKMTSLTTEDTATYFCARAIGYYGSGWGACYFNLWGQGTLVTVSS VL: AIKMTQTPSSVSAAVGGTVTVNCQASEDIKSYLAWYQQKPGQPPKLLIYSASTLASGVSSRFKGSGSGTQFTLTISDLECADAATYYCQSYYGTSTTGEYNAFGGGTKVEIK was 1.07

For reference, reported Octet response of Ab2 for DAB0065 (antibody, V domains shown, Variable regions from immunized rabbits) VH: QSVEESGGRLVTPGTPLTLTCTVSGFSLSTSAMSWVRQAPGKGLEWIGMITYGGSGSTWYASWANGRFTISKTSTTVTLKMTSPTTEDTASYFCARVYGTIGSNFYSIYSFNLWGQGTLVTVSS VL: AAVLTQTPSPVSAAVGGTVSISCQSSKSVYNSNYLSWYQQKPGQPPKLLIYYTSALASGVSSRFKGSGSGTRFTLTISDVQCDDAATYYCAGGYSSSSDNGFGGGTKVEIK stands at 1.55

Octet response of Ab2 measured on DAB0060 (antibody, V domains shown, Variable regions from immunized rabbits) VH: QSVEESGGRLVTPGTALTLTCTASGFSLSSYDMSWVRQAPGEGLEWIGTIFTEGSTSCASWVKGRFTISRTSTTVDLKITSPTTEDTATYFCVRGTTSNRLWGQGTLVTVSS VL: DVVMTQTPASVEAVVGATVTIRCQASESITNYLSWYQQKPGQPPKVLIYYASTLESGVPSRFKGSGSGTQFTLTISDLECADAATYYCQSNYFSSSYSYGNTFGGGTKVEIK = -0.054

# binder DAB0094 (antibody, V domains shown, Variable regions from immunized rabbits) VH: QSVEESGGRLVTPGTPLTLTCTVSGFSLSSYSVAWVRQAPGKGLEWIGYISYSGSTYYASWVNGRFTISKTSTTVDLKMTSLTASDTATYFCARDPGYSRDLWGQGTLVTVSS VL: DVVMTQTPSSVSEPVGGTVTIKCQASQSIGSYLSWYQQKPGQPPKLLIYRASTLASGVSSRFKGSGSGTEFTLTINGLECADAAIYYCQSSYVGVSHGSFGGGTKVEIK ; its Octet response of Ab2 = 0

Entry DAB0048 (antibody, V domains shown, Variable regions from immunized rabbits) VH: QSVEESGGRLITPGTPLTLTCTASGFSLSIYYMIWVRQAPGKGLEWIGYIWSGSTTDYASWAKGRFTISKTSTTVDLKITSPTTEDTATYFCARVYAGYGYGSDLWGQGTLVTVSS VL: AAVLTQTPSPVSAAVGGTVSISCQSSQSVYNNNWLAWYQQKPGQPPKLLIYSASTLASGVPSRFKGSGSGTQFTLTISDVQCDDAATYYCAGGYSTNSDKNAFGGGTKVEIK — recorded Octet response of Ab2 = 1.5
